The reported numbers originate from patent US8642609B2.

target-system: ΔF508-CFTR (Homo sapiens, UniProt P13569, DEL508-508)
Construct: expressed in transfected cells
Sequence (P13569 with tags, fused parts or gaps DEL508-508): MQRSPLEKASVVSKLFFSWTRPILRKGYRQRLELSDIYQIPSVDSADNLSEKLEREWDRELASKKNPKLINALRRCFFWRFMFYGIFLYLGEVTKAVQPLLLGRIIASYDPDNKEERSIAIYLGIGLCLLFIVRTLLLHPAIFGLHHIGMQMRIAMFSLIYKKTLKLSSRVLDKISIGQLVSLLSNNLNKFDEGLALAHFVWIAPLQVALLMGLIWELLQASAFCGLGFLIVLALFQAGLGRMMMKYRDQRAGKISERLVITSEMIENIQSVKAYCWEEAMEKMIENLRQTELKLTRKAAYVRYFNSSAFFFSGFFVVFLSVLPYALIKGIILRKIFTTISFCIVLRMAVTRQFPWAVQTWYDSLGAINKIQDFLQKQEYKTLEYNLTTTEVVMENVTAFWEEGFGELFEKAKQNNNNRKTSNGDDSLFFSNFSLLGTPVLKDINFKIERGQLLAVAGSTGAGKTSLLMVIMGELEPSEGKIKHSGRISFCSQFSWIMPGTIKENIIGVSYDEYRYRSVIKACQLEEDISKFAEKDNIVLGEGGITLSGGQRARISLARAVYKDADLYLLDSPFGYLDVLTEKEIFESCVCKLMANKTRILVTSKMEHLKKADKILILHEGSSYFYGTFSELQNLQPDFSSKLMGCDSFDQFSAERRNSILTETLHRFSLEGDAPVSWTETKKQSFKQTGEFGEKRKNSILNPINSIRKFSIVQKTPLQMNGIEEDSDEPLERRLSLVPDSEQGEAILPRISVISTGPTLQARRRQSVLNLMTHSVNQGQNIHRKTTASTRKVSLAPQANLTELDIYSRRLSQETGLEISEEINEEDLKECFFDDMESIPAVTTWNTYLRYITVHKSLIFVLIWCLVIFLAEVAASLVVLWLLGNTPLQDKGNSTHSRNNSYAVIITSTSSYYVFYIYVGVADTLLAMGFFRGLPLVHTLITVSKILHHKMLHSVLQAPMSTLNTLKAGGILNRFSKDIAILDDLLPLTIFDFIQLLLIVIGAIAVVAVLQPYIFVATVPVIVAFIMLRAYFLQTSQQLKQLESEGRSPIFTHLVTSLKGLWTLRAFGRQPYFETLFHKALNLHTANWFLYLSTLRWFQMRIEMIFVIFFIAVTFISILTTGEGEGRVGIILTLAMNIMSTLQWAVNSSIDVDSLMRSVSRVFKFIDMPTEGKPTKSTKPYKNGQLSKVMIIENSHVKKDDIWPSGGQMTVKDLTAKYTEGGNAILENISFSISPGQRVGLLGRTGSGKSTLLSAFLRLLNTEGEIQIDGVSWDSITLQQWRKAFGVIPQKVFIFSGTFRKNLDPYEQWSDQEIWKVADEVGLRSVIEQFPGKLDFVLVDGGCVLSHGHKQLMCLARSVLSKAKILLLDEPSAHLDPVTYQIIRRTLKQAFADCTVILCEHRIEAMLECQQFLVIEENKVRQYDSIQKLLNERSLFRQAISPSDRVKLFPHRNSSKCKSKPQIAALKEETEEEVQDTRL
test-method-notes: Membrane potential optical assay (FRET/VIPR), identification of correction compounds
Format: cell-based
condition-notes: relative efficacy
Entries annotated with measured Emax

>  <compound>
COc1ccc(S(=O)(=O)N2CCN(C(C)c3nc(C(C)C)c4ccccc4n3)CC2)cc1 (stereo not shown) [compound 310]

>  <target-system>
ΔF508-CFTR (Homo sapiens, UniProt P13569, DEL508-508)

>  <Emax>
25 to 100%

$$$$
>  <compound>
COc1ccc2nc(C(C)N3CCN(S(=O)(=O)c4ccc(Cl)cc4)CC3)n(C)c(=O)c2c1 (stereo not shown) [compound 136]

>  <target-system>
ΔF508-CFTR (Homo sapiens, UniProt P13569, DEL508-508)

>  <Emax>
> 100%

$$$$
>  <compound>
CC(c1nc2ccc(C(N)=O)cc2c(=O)n1C)N1CCN(S(=O)(=O)c2ccc(Cl)cc2)CC1 (stereo not shown) [compound 157]

>  <target-system>
ΔF508-CFTR (Homo sapiens, UniProt P13569, DEL508-508)

>  <Emax>
25 to 100%

$$$$
>  <compound>
Cc1noc(C)c1S(=O)(=O)N1CCN(C(C)c2nc3ccccc3c(=O)n2C)CC1 (stereo not shown) [compound 266]

>  <target-system>
ΔF508-CFTR (Homo sapiens, UniProt P13569, DEL508-508)

>  <Emax>
< 25%

$$$$
>  <compound>
COc1ccc(S(=O)(=O)N2CCN(C(C)c3nc4ccc(OC)cc4c(=O)n3C)CC2)cc1 (stereo not shown) [compound 135]

>  <target-system>
ΔF508-CFTR (Homo sapiens, UniProt P13569, DEL508-508)

>  <Emax>
25 to 100%

$$$$

Fill in the blank: the reported Emax of Cc1ccccc1S(=O)(=O)N1CCN(C(C)c2nc3ccccc3c(=O)n2C)CC1 (stereo not shown) [compound 69] is ____. 25 to 100%

For CCCn1c(C(C)N2CCN(S(=O)(=O)c3c(C)cc(C)cc3C)CC2)nc2ccccc2c1=O (stereo not shown) [compound 21] then? 25 to 100%

Next compound: C[C@H](c1nc(N2CCCCC2)c2ccccc2n1)N1CCN(S(=O)(=O)c2ccc(Cl)cc2)CC1 [compound 379] > 100%

And for Cc1cccc(C(=O)N2CCN(C(C)c3nc4cc(Cl)ccc4c(=O)n3C)CC2)c1 (stereo not shown) [compound 119] ? 25 to 100%

Let us now turn to CCc1nc(N(C)C)c2ccccc2n1 [compound 159] < 25%

Also check CCCOc1nc(CC)nc2ccccc12 [compound 158] < 25%

Try the compound CC(c1nc2ccccc2c(=O)n1C)N1CCCNCC1 (stereo not shown) [compound 184] < 25%

And CC(c1nc2ccc(Cl)cc2c(=O)n1C)N1CCN(C(=O)c2cccc(Cl)c2)CC1 (stereo not shown) [compound 83] ? < 25%

// repeat for COc1ccc(S(=O)(=O)N2CCN(Cc3nc(OC4CCCC4)c4ccccc4n3)CC2)cc1 [compound 386] and report > 100%

Entry CC(c1nc2ccccc2c(=O)n1C)N1CCN(S(=O)(=O)c2ccc(Cl)c(Cl)c2)CC1 (stereo not shown) [compound 241] please > 100%

Another compound to check: CC(c1nc2ccccc2c(=O)n1CCO)N1CCN(S(=O)(=O)c2ccc(Br)cc2)CC1 (stereo not shown) [compound 153] 25 to 100%
